# procedure text: Pulse radiolysis (E(1) and fragmentation rate)
# Format: physicochemical
# condition parameters: benzyl-type radical formation
Returns: string. Value is met if measured kfrag. (fragmentation rate constant upon 1-electron reduction) is below 200 s⁻¹, and not met if it is greater than or equal to it.

> print(dat)
                            smiles.notation  category
1  Cn1cnc([N+](=O)[O-])c1C[N+]1(CCOc2ccc(Nc3ncc4cc(-c5c(Cl)cccc5Cl)c(=O)n(C)c4n3)cc2)CCCCC1.[Br-]       met
2  Cn1cnc([N+](=O)[O-])c1C[N+](C)(C)C/C=C/C(=O)Nc1ccc2ncnc(Nc3cccc(Br)c3)c2c1.[Br-]       met
3  CC[N+](CC)(CCOc1ccc(Nc2ncc3cc(-c4c(Cl)cccc4Cl)c(=O)n(C)c3n2)cc1)Cc1c([N+](=O)[O-])nc(C)n1C.[Br-]   not met
4  Cn1cnc([N+](=O)[O-])c1C[N+](C)(C)C/C=C/C(=O)Nc1cc2c(Nc3ccc(F)c(Br)c3)ncnc2cn1       met
5  CC[N+](CC)(CCNC(=O)c1c(C)[nH]c(/C=C2\C(=O)Nc3ccc(F)cc32)c1C)Cc1c([N+](=O)[O-])ncn1C.O=C([O-])C(F)(F)F   not met
6  Cn1c(C[N+](C)(C)C/C=C/C(=O)Nc2ccc3ncnc(Nc4cccc(Br)c4)c3c2)ccc1[N+](=O)[O-].[Br-]       met

====

# procedure text: Plasma and tissue pharmacokinetics of prodrug 42 in H1975 tumour bearing mice
# Assay type: in vivo
# condition parameters: female, NIH-III, mouse, liver, 20 umol/kg; single iv dose of 42 at 20 μmol/kg; read-out: AUC0-24 hr Liver, 42
endpoint label: AUC(0-t) (µM·h)

> print(dat)
                            smiles.notation  numeric.readout
1  Cn1cnc([N+](=O)[O-])c1C[N+](C)(C)C/C=C/C(=O)Nc1cc2c(Nc3ccc(F)c(Br)c3)ncnc2cn1              256

====

# System: HT29 cells
# procedure text: Cellular growth inhibition (sulforhodamine B)
# Format: cell-based, Human
# condition parameters: Table 7; 24 hour exposure oxic; read-out: Cellular Growth Inhibition IC50 HT29 Oxic
The following compounds are shown together with reported IC50 values.
endpoint label: IC50 (µM)

> print(dat)
                            smiles.notation      target  readout.qualifier  numeric.readout
1  CC[N+](CC)(CCOc1ccc(Nc2ncc3cc(-c4c(Cl)cccc4Cl)c(=O)n(C)c3n2)cc1)Cc1c([N+](=O)[O-])nc(C)n1C.[Br-]  HT29 cells                  =              5.6
2  Cn1cnc([N+](=O)[O-])c1C[N+](C)(C)C/C=C/C(=O)Nc1cc2c(Nc3ccc(F)c(Cl)c3)ncnc2cc1O[C@H]1CCOC1.O=C([O-])C(F)(F)F  HT29 cells                  >              100
3  CC[N+](CC)(CCNC(=O)c1c(C)[nH]c(/C=C2\C(=O)Nc3ccc(F)cc32)c1C)Cc1c([N+](=O)[O-])ncn1C.O=C([O-])C(F)(F)F  HT29 cells                  =              298
4  CC[N+](CC)(CCOc1ccc(Nc2ncc3cc(-c4c(Cl)cccc4Cl)c(=O)n(C)c3n2)cc1)Cc1c([N+](=O)[O-])ncn1C.[Br-]  HT29 cells                  =              4.6
